protocol.details: HepG2 cell viability effects, profiling panel, calcein-AM fluorescence, 48 h, basal (AID 1164); further: test concentration not given here
test.context: higher = more signal
measured.parameter: z-score
// print number alone

Record C[C@@H]1CC[C@H]2C(=O)O[C@@H](COc3ccc(C(C)(C)C)cc3)CN2[C@@H]1c1ccc(Br)cc1 . Reported z-score: 0.843

response.value for CO[C@H]1COC(=O)CC=C[C@H](C)[C@@H](OC)COC(=O)[C@@H](C)NC(=O)CC=C[C@@H]1C (field: z-score) = -1.72

Entry COc1cccc([C@H]2Oc3ccc(OC)cc3C(=NOC[C@@H](O)COCc3ccco3)[C@@H]2O)c1 — recorded z-score = 0.819

Value of measured z-score for the entry COc1ccc(O[C@@H]2[C@H](O)CO[C@H]2C=Cc2ccccc2)cc1 : 0.898

---

Documented z-score across a set of molecules
protocol.details: A549 cell viability effects, profiling panel, calcein-AM fluorescence, 48 h, basal (AID 1162); further: test concentration not given here
test.context: higher = more signal
Please reply with the value in numeric form only.

[[record]]
entry_smiles = "O=C1[C@H]2[C@H]3[C@H](O)[C@H](O)CC(=NO[C@@H]4O[C@H](CO)[C@@H](O)[C@H](O)[C@H]4O)[C@H]3CC[C@H]2C(=O)N1c1cccc(Oc2ccccc2)c1"
value_reported = -0.0287


# z-score of CC(C)=NOC[C@@H](C)[C@H](OCc1ccccc1)C(C)C = 0.108

The molecule identified as CCCNC(=O)OC[C@H]1O[C@H](CCON=C(C)CCC(=O)OC[C@H]2O[C@H](c3ccccc3)C=C[C@@H]2Oc2ccc(OC)cc2)C=C[C@@H]1Oc1ccc(OC)cc1 registered its z-score at 0.415

// field: z-score; key: COc1ccc(O[C@H]2C=C[C@@H](c3ccccc3)O[C@@H]2CON=C(C)CCC(=O)OC[C@H]2O[C@H](c3ccccc3)C=C[C@@H]2Oc2ccc(OC)cc2)cc1 ; value = -0.094

The recorded z-score for entry COC(=O)C=CCCc1coc(C=CCNC(=O)OC)n1 equals -0.538

Record summary for Cc1cc2c(nc1C)CCCN2CC(O)CN1CCCc2nc(C)c(C)cc21 : reported z-score = -0.254

// C#CCCCON=C1[C@H]2CCn3c(=O)n(-c4ccccc4)c(=O)n3[C@H]2[C@H](O)[C@@H]2O[C@H]12 : z-score value = -0.212

---

protocol.details: small-molecule microarray binders of probe aWnt5a, primary screen, biochemical, biotinylated probe, 635/667 nm fluorescence (AID 1113);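 further: score merges 667 nm fluorescence intensity with signal-to-noise per printed feature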
test.context: higher = more signal
Label TRUE when composite z-score is at or above -0.1; otherwise label FALSE.

[[record]]
compound = "COC(=O)CC=C[C@@H](C)[C@@H](C=NO[C@@H](C)c1cc(-c2c(C)cc(C)cc2C)no1)NS(=O)(=O)c1ccc(C)cc1"
class_name = "FALSE"


// inclusive: composite z-score at least -0.1? input: COc1ccc(O[C@@H]2[C@H](O)CO[C@@H]2C=Cc2ccccc2)cc1
FALSE

Evaluate O=C1[C@H]2[C@H]3[C@H](O)[C@H](O)CC(=NOCc4ccccc4)[C@@H]3CC[C@H]2C(=O)N1c1ccc(F)cc1F : composite z-score at minimum -0.1?
TRUE

Check if composite z-score >= -0.1 (inclusive). Item: CO[C@H]1COC(=O)CC=C[C@H](C)[C@@H](OC)COC(=O)[C@@H](C)NC(=O)CC=C[C@@H]1C
FALSE

hey, is composite z-score for this one >= -0.1? O=C(NN=C1C[C@@H](O)[C@@H](O)[C@@H]2[C@@H]3C(=O)N(C[C@@H]4CCCO4)C(=O)[C@@H]3CC[C@@H]12)OCc1ccccc1
FALSE

Does the reported composite z-score for CC(C)[C@@H](OCc1ccccc1)[C@H](C)C=NOC[C@@H](O)COCc1ccco1 fall at or above the -0.1 mark?
FALSE

Has COc1cccc([C@H]2Oc3ccc(OC)cc3C(=NO[C@@H](C)c3cn([C@H](CO)Cc4ccccc4)nn3)[C@@H]2O)c1 a recorded composite z-score greater than or equal to -0.1?
TRUE

Decide: composite z-score of COC(=O)[C@H](C)NC(=O)CCC1CC(OC(=O)NCCc2ccc(F)cc2)CC2(CCCC(COC(=O)NCc3cccc(C(F)(F)F)c3)O2)O1 (some centres undefined) >= -0.1?
FALSE

Dear colleague, could you confirm whether CC[C@@H](c1ccccc1)n1c(=O)n2n(c1=O)[C@H]1[C@H](O)[C@@H]3O[C@@H]3C(=NOC[C@@H](O)COCc3ccco3)[C@H]1CC2 has composite z-score at or above -0.1?
FALSE

Is it the case that CC1O[C@H]2C3=C(C(=O)[C@@H]4O[C@@H]4[C@H]3O)[C@@H]1C1[C@@H](C)OC=C3[C@H](O)C4O[C@@H]4C(=NOCc4ccccc4)[C@]312 (some centres undefined) has composite z-score reaching or exceeding -0.1?
TRUE

---

Reported z-score values for the following compounds.
target: NADPH oxidase 4 (Homo sapiens) (UniProt Q9NPH5)
Sequence (Q9NPH5 whole entry, looked up): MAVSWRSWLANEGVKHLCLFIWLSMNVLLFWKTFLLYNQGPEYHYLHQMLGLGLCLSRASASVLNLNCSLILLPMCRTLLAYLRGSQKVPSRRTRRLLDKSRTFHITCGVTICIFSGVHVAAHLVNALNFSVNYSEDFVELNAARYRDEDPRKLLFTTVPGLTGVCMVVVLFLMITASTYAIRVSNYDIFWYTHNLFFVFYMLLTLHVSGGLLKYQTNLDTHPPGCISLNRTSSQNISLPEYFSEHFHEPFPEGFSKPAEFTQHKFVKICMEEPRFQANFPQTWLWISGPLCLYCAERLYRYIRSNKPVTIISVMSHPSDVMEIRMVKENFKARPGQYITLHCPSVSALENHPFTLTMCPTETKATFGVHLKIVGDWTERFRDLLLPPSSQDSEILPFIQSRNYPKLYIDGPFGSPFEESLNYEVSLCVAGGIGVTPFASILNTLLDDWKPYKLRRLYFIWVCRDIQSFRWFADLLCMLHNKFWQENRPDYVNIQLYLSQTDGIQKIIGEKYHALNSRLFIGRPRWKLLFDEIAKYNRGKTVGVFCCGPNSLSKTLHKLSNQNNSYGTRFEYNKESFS
protocol.details: NOX4-dependent H2O2 signal modulators, primary screen, NOX inhibitor project, cell-based, HEK293-NOX4, tetracycline-induced, Amplex Red fluorescence (AID 1160)
test.context: 45 min, higher = more signal, called active from +8 up or from −8 down
Answer with a number only.

[[record]]
compound = "CCOC(=O)[C@H](CC(C)C)NC(=O)CCC1CC(OC(=O)NCCc2ccc(F)cc2)CC2(CCCC(COC(=O)NCCOc3ccccc3)O2)O1 (some centres undefined)"
value_reported = 0.31

[[record]]
compound = "CO[C@H]1COC(=O)[C@@H](C)COC(=O)[C@H](C)NC(=O)CC=C[C@H]1C"
value_reported = 0.315

[[record]]
compound = "CC(C)CON=C1[C@H]2CCn3c(=O)n(Cc4cc5c(cc4Cl)OCO5)c(=O)n3[C@H]2[C@H](O)[C@@H]2O[C@H]12"
value_reported = 0.223


For record CC(=O)O[C@H]1C2=CO[C@H](C)[C@H]3[C@H]4C5=C([C@H](O)[C@H]6O[C@H]6C5=O)[C@H](OC4C)[C@@]23C(=O)[C@@H]2O[C@@H]21 (some centres undefined) the listed z-score is -0.891

---

Test system: Human papillomavirus type 1a protein E7 (residues 44-93)
protocol.details: HPV1a E7 fragment binders on microarrays, primary screen, biochemical, small-molecule microarray, residues 44-93, 635 nm fluorescence (AID 1108);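 further: E7 fragment applied at 1 µg/mL in TBST for 1 h at 4 C; score combines spot fluorescence with its signal to noise ratio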
test.context: small-molecule microarray binding, fluorescence 635 nm; higher = more signal
measured.parameter: composite z-score
Answer with a bare number; do not write a unit.

Example results:
[[record]]
entry_smiles = "COC(=O)[C@H]1[C@@H](O)[C@@]2(O)c3ccccc3O[C@@]2(c2ccccc2)[C@@H]1c1ccccc1"
value_reported = -0.673

[[record]]
entry_smiles = "CCN1C(=O)[C@H]2[C@H]3[C@H](O)[C@H](O)CC(=NOCC(C)C)[C@@H]3CC[C@H]2C1=O"
value_reported = 1.33


# context switch: different compound, same composite z-score
Short answer for CC(C)(C)N1C(=O)[C@H]2[C@H]3[C@H](O)[C@H](O)CC(=O)[C@H]3CC[C@H]2C1=O : composite z-score was 0.487

---

protocol.details: basal HepG2 mitochondrial membrane potential changes, profiling panel, cell-based, JC-1 fluorescence, 24 h, 100 nL compound (AID 1167); further: test concentration not given here
test.context: higher = more signal
Please assign a class to every record based on measured z-score, with ranges class A: < -0.03; class B: ≥ -0.03 and < 1; class C: ≥ 1

Observe how each entry below is paired with its result.
[[record]]
compound = "CC(CCN1CCCc2nc(C)c(C)cc21)=NO[C@@H](C)c1cc(-c2c(C)cc(C)cc2C)no1"
class_name = "class C"

[[record]]
compound = "Cc1ccc(S(=O)(=O)N[C@H]2COC(=O)CC=C[C@@H](C)COC(=O)CC=C[C@@H]2C)cc1"
class_name = "class B"

[[record]]
compound = "CC(C)(C)N1C(=O)[C@H]2[C@H]3[C@H](O)[C@H](O)CC(=O)[C@H]3CC[C@H]2C1=O"
class_name = "class B"


Lab log: COc1ccc(COC(=O)NN=C2C[C@@H](O)[C@@H](O)[C@@H]3[C@@H]4C(=O)N(c5cccc(Oc6ccccc6)c5)C(=O)[C@@H]4CC[C@@H]23)cc1 — assign z-score category
class A

Note: place this compound into its band. Item: COC(=O)[C@H](C)NC(=O)CCC1CC(OC(=O)NCCc2ccc(F)cc2)CC2(CCCC(COC(=O)NCc3cccc(C(F)(F)F)c3)O2)O1 (stereo partly specified)
class A

Consider CC(CCN1CCCc2nc(C)c(C)cc21)=NOC(C)CN1CCCCc2nc(C)c(C)cc21 (stereo unspecified) . To which z-score class does it belong?
class C

Hey, which category is CO[C@H]1COC(=O)CCC[C@@H](C)[C@H](OC)COC(=O)[C@@H](C)NC(=O)CC=C[C@@H]1C in, do you know?
class C

Band for CO[C@H](C1CCCCC1)[C@H](C)C=CCC(=O)OCCCc1ccccc1 ?
class B

Consider O=C1C[C@@H](O)[C@@H](O)[C@@H]2[C@@H]3C(=O)N(Cc4ccc5c(c4)OCO5)C(=O)[C@@H]3CC[C@H]12 . To which z-score class does it belong?
class A

Kindly state the category for this compound: COc1ccc(O[C@H]2C=C[C@@H](c3ccccc3)O[C@@H]2COC(=O)CCC(C)=NOC(C)CN2CCCc3nc(C)c(C)cc32)cc1 (stereo partly specified)
class C

Form field 'band' for CCCCc1nc2c(c3c1C[C@H](C)OC3)CN(CCOc1ccccc1)CC2
class C

The entry to classify is C=CC[C@@H]1C=C[C@H](ON=C(C)CCC(=O)OC[C@H]2O[C@H](c3ccccc3)C=C[C@@H]2Oc2ccc(OC)cc2)[C@@H](CO)O1 ; which class holds it?
class A

In plain terms, what class is CO[C@H]1COC(=O)[C@@H](Cc2ccccc2)NC(=O)[C@@H](C)COC(=O)CCC[C@@H]1C ?
class A

Bin? O=C1C[C@@H](O)[C@@H](O)[C@@H]2[C@@H]3C(=O)N(c4cccc(Oc5ccccc5)c4)C(=O)[C@@H]3CC[C@H]12
class A

Would you mind sorting O=c1n(Cc2cc3c(cc2Cl)OCO3)c(=O)n2n1CC[C@@H]1C(=NOCc3ccccc3)[C@H]3O[C@H]3[C@@H](O)[C@@H]12 into the appropriate category?
class C
